target: EphA2 endogenously expressed on PC3 prostate cancer cells (UniProt P29317 24-976, limits assumed); experiment: cell-based or functional assay
Sequence (P29317 24-976 limits assumed): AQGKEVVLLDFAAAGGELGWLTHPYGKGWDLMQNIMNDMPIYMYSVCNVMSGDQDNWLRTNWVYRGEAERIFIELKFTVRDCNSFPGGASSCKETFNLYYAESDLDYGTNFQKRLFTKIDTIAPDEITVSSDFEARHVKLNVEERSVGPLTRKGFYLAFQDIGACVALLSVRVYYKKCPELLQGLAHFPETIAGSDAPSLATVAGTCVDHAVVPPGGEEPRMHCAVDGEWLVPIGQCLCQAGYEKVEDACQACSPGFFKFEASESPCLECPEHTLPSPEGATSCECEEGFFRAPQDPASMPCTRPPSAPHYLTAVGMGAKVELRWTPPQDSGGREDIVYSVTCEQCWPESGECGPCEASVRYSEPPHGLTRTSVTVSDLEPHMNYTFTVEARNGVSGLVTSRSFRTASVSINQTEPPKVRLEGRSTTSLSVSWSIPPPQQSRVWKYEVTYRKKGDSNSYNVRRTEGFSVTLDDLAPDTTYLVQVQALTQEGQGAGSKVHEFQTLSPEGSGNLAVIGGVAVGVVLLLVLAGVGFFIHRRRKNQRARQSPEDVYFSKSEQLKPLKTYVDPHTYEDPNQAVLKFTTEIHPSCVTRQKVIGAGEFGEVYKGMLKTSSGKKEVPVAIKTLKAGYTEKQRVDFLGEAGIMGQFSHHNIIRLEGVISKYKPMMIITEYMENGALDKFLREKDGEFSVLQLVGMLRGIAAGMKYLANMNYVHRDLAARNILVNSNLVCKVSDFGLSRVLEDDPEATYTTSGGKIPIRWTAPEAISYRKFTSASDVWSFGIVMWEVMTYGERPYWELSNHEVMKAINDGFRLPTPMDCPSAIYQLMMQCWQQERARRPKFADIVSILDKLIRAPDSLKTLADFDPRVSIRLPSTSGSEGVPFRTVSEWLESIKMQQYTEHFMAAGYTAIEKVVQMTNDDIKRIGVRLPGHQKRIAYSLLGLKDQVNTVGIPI
Where no end group is shown, it is not given here. [ ]: non-standard residue; d: D form. βAla = NCCC(=O)O
Measure Name: EC50 pAKT inhib (nM)

- [βAla]WLAYPDSVPYGSGC (also: homodimer, disulfide at 15, other end not in the chain, C-terminally disulfide-linked homodimer made from monomer (9*); also called dimer (1); dimeric peptide (1)) [βA-WLA-YGSGC dimer (C-ter)]: 39
- Lys-linked dimer (C-ter) (also: bond at chain A 15 to a chain's C-terminus) peptide 1: [βAla]WLAYPDSVPYRPKK peptide 2: [βAla]WLAYPDSVPYRPK: 0.42
- CGAWLAYPDSVPYR (also: homodimer: N-terminal Cys of two chains joined by disulfide, N-terminally disulfide-linked homodimer made from monomer (15*); also called dimer (4)) [CGA-WLA-YR dimer (N-ter)]: 0.53
- [βAla]WLAYPDSVPYRPKC (also: homodimer, disulfide at 15, other end not in the chain, C-terminally disulfide-linked homodimer made from monomer (19*); also called dimer (2); dimeric peptide (2)) [βA-WLA-YRPKC dimer (C-ter)]: 0.82
